system: MOLT-14; experiment: selective drug sensitivity score (sDSS, relative to normal bone marrow) (sDSS (score)); higher = more potent and effective on the cell line relative to normal bone marrow cells; conditions: 72 h;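 note: ALL cell lines in 384-well plates, five doses spanning 10,000-fold, each plate scaled between vehicle and 100 µmol/L benzalkonium chloride controls, sDSS an adapted area-under-curve metric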
Assign class by selective drug sensitivity score: not lower than -0.9 means yes (1); lower than -0.9 means no (0).

Look over these answered cases.
COMPOUND | LABEL CLASS
COc1cc2nccc(Oc3ccc(NC(=O)Nc4cc(C)on4)c(Cl)c3)c2cc1OC [Tivozanib] (top concentration 10000 nM) | yes (1)
CO[C@@H](C(=O)N1Cc2[nH]nc(NC(=O)c3ccc(N4CCN(C)CC4)cc3)c2C1)c1ccccc1 [Danusertib] (top concentration 10000 nM) | yes (1)
O=C(CCCCCCC(=O)Nc1ccccc1)NO [Vorinostat] (top concentration 10000 nM) | yes (1)
Cc1sc2c(c1C)C(c1ccc(Cl)cc1)=N[C@@H](CC(=O)Nc1ccc(OCCOCCOCCOCCNc3cccc4c3C(=O)N(C3CCC(=O)NC3=O)C4=O)cc1)c1nnc(C)n1-2 (stereo partly specified) [ARV-825] (top concentration 300 nM) | yes (1)
CCCS(=O)(=O)Nc1ccc(F)c(C(=O)c2c[nH]c3ncc(-c4ccc(Cl)cc4)cc23)c1F [Vemurafenib] (top concentration 10000 nM) | yes (1)

Moving on to another compound below.
Dear colleague, could you confirm whether FC(F)c1nc2ccccc2n1-c1nc(N2CCOCC2)nc(N2CCOCC2)n1 [ZSTK474] (top concentration 10000 nM) has selective drug sensitivity score at or above -0.9?
no (0)

All figures here come from the supplement of paper PMC8967900.
